Source of measurements: patent US11285135B2

Molecular target: GDP-bound protein (aa 1-169), containing both G12C and C118A amino acid substitutions (Homo sapiens, UniProt P01116, C118A/G12C)
Sequence (P01116 1-169 isoform P01116-2 G12C/C118A): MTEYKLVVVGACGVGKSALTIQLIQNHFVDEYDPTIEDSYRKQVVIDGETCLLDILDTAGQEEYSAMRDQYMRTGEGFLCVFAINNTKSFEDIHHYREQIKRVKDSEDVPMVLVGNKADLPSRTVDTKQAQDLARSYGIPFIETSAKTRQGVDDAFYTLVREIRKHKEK
Test: Coupled Nucleotide Exchange Assay (SOS-mediated nucleotide exchange, AlphaScreen)
Assay type: biochemical
Details: 2 hours compound pre-incubation
Property measured: Coupled exchange IC50

Quick request: Coupled exchange IC50 for each listed item, please.
1. C=C(CBr)C(=O)N1CCN(c2snc3c(F)c(-c4cc(O)cc5ccccc45)c(Cl)cc23)CC1
2. C=CC(=O)N1CCN(c2snc3c(F)c(-c4c(C5CC5)ccc5[nH]ncc45)c(Cl)cc23)CC1
3. C=CC(=O)N1CCN(c2snc3c(F)c(-c4cc(O)cc5ncccc45)c(Cl)cc23)CC1
4. C=CC(=O)N1CCN(c2nc(=O)n(-c3ccccc3C(C)C)c3cc(-c4cc(O)cc(Cl)c4Cl)c(Cl)cc23)[C@@H](C)C1
5. C=CC(=O)N1CCN(c2snc3nc(-c4c(C)ccc5[nH]ncc45)c(Cl)cc23)C(C)C1 (single isomer, unassigned) [Example 2-6-1]
6. C=CC(=O)N1CCN(c2nnc(-c3cnccc3C)c3cc(-c4c(O)cccc4F)c(Cl)cc23)CC1

a:
["0.760 µM", "3.29 µM", "9.41 µM", "0.155 µM", "13.0 µM", "1.20 µM"]

q: Please list Coupled exchange IC50 recorded for the compound C=CC(=O)N1CCN(c2nnc(-c3c(C)ccc4[nH]ncc34)c3cc(-c4c(O)cccc4F)c(Cl)cc23)CC1
a: 0.912 µM

----------
Target: GDP-bound protein (aa 1-169), containing both G12C and C118A amino acid substitutions (Homo sapiens, UniProt P01116, C118A/G12C)
Assay: Coupled Nucleotide Exchange Assay (SOS-mediated nucleotide exchange, AlphaScreen)
Assay type: biochemical
Conditions: 2 hours compound pre-incubation
Category | rule: reported Coupled exchange IC50 within range, see lowest: < 0.5 µM; middle: ≥ 0.5 µM and < 0.9 µM; highest: ≥ 0.9 µM

Below, 2 compounds whose answers are already recorded.
C=CC(=O)N1CCN(c2snc3c(F)c(-c4cc(O)cc5ccccc45)c(Cl)cc23)C[C@H]1C	middle
C=CC(=O)N1CCN(c2snc3c(F)c(-c4cc(N)ccc4Cl)c(Cl)cc23)CC1	highest

q: Form field 'band' for C=CC(=O)NC1CN(c2snc3c(F)c(-c4cc(O)cc5ccccc45)c(Cl)cc23)C1
a: middle

q: Assign a bin to C=CC(=O)N1CCN(c2nnc(-c3cccnc3C)c3cc(-c4c(O)cccc4F)c(Cl)cc23)CC1
a: highest

q: Assign a category based on measured Coupled exchange IC50 for C=CC(=O)N1CCN(c2snc3c(F)c(-c4cc(O)cc5cn(C)nc45)c(Cl)cc23)CC1 and give only the class name.
a: highest

q: Sort into band: C=CC(=O)N1C[C@@H]2[C@H]1CCN2c1snc2c(F)c(-c3cc(O)cc4ccccc34)c(Cl)cc12 (racemic)
a: lowest

q: Which category does the recorded Coupled exchange IC50 put C=CC(=O)N1CCN(c2nc(=O)n(-c3ccccc3C(C)C)c3cc(-c4c(O)cccc4F)c(Cl)cc23)CC1 [Example 8-1] in?
a: middle

q: Kindly identify the class of C=CC(=O)N1CCN(c2nnc(-c3c(C)cccc3C)c3cc(-c4c(O)cccc4F)c(Cl)cc23)CC1 .
a: middle

q: Bin this entry: C=CC(=O)N1CCN(c2nc(=O)n(-c3ccccc3C(C)C)c3cc(-c4cc(O)cc5ccccc45)c(Cl)cc23)CC1
a: lowest

q: Record C=CC(=O)N1CCN(c2snc3c(F)c(-c4cc(O)ccc4Cl)c(Cl)cc23)CC1 — which class?
a: lowest

q: Could you place C=CC(=O)N1CCN(c2snc3c(F)c(-c4cc(O)cc5ccccc45)c(Cl)cc23)C(CCO)C1 (stereo in doubt) in its proper category? Many thanks.
a: middle

q: In plain terms, what class is C=CC(=O)N1CCN(c2snc3c(F)c(-c4c(C)ccc5[nH]ncc45)c(Cl)cc23)[C@@H](C)C1 ?
a: lowest

q: Class for C=CC(=O)N1CCN(c2snc3c(F)c(-c4cc(O)cc5ccccc45)c(Cl)cc23)C(C(=O)O)C1 (stereo not drawn) ?
a: highest

q: Exercise: read the entry C=CC(=O)N1CCN(c2nc(=O)n(-c3ccccc3C(C)C)c3cc(-c4c(O)cccc4F)c(Cl)cc23)[C@@H](C)C1 [Example 8-3] and state which class it falls under.
a: middle

----------
Target: GDP-bound protein (aa 1-169), containing both G12C and C118A amino acid substitutions (Homo sapiens, UniProt P01116, C118A/G12C)
Assay: Coupled Nucleotide Exchange Assay (SOS-mediated nucleotide exchange, AlphaScreen)
Format: biochemical
Conditions: 2 hours compound pre-incubation
Property measured: Coupled exchange IC50 (nM)
Answers are plain numbers, in nM.

The cases that follow already have their Coupled exchange IC50 on record.
C=CC(=O)N1CCN(c2snc3c(F)c(-c4cc(O)cc5ccccc45)c(Cl)cc23)[C@@H](C)C1 (single isomer, unassigned) [Example 1-19-1]	115
C=CC(=O)N1CCN(c2nc(=O)n([C@H]3CCCCC3(C)C)c3nc(-c4c(O)cccc4F)c(Cl)cc23)CC1 (racemic)	129
C=CC(=O)N1CCN(c2nc(=O)n(-c3ccccc3C(C)C)c3cc(-c4cccc(Cl)c4Cl)c(Cl)cc23)[C@@H](C)C1	101
C=CC(=O)N1CCN(c2nnc(OC)c3cc(-c4c(O)cccc4F)c(Cl)cc23)CC1 (single isomer, unassigned)	28600
C=CC(=O)N1CCN(c2nc(=O)n(-c3cccc(C#N)c3)c3cc(-c4c(O)cccc4F)c(Cl)cc23)CC1	1330
C=CC(=O)N1CCN(c2snc3c(F)c(-c4cc(O)cc5ccccc45)c(Cl)cc23)[C@@H](C)C1 [Example 1-19]	297
C=CC(=O)N1CCN(c2nc(=O)n(-c3c(CC)cccc3CC)c3nc(-c4c(O)cccc4F)c(Cl)cc23)[C@@H](C)C1	95
C=CC(=O)N1CCN(c2nnc(-c3ccccc3)c3cc(-c4c(O)cccc4F)c(Cl)cc23)CC1	7510

Can you give me Coupled exchange IC50 for all of these, one by one?
1. C=CC(=O)NC1(C)CN(c2snc3c(F)c(-c4cc(O)cc5ccccc45)c(Cl)cc23)C1
2. C=CC(=O)N1CCN(c2nnc(Cc3ccccc3)c3cc(Cl)c(-c4c(O)cccc4F)cc23)CC1

a:
14200
39800

----------
Target: GDP-bound protein (aa 1-169), containing both G12C and C118A amino acid substitutions (Homo sapiens, UniProt P01116, C118A/G12C)
Assay: Coupled Nucleotide Exchange Assay (SOS-mediated nucleotide exchange, AlphaScreen)
Assay type: biochemical
Details: 2 hours compound pre-incubation
Property measured: Coupled exchange IC50 (nM)
Numbers only, in nM.

C=CC(=O)N1CCN(c2snc3c(F)c(-c4cc(O)cc5ccccc45)c(Cl)cc23)C[C@@H]1C	610

Please give Coupled exchange IC50 for each item listed below.
1. C=CC(=O)N1CCN(c2snc3c(F)c(-c4cnccc4C(C)C)c(Cl)cc23)CC1
2. C=CC(=O)N1CCN(c2nc(=O)n(-c3ccncc3C3CC3)c3cc(-c4c(C)ccc5[nH]ncc45)c(Cl)cc23)[C@@H](C)C1
3. C=CC(=O)N1CCN(c2nnc(-c3ccccc3C(C)C)c3cc(-c4c(O)cccc4F)c(C)nc23)CC1
4. C=CC(=O)N1CCN(c2snc3c(F)c(-c4cc(O)cc5ccccc45)c(Cl)cc23)[C@H](C)C1
5. C=CC(=O)N1CCN(c2nc(=O)n(-c3ccccc3C(C)C)c3cc(-c4c(O)cccc4F)c(Cl)cc23)[C@@H](C)C1 (single isomer, unassigned) [Example 8-3-1]
6. C=CC(=O)N1CCN(c2snc3cc(-c4c(O)cccc4F)c(Cl)cc23)CC1

a:
32000
147
1780
1300
282
2880

----------
System: Phosphorylation of ERK½ in A549 cells
Test: Phospho-ERK½ MSD Assay in A549 cells
Type: cell-based
Settings: Homo sapiens, A549, A549 cells; 4 hours compound treatment; 10 ng/mL EGF for 10 min; read-out: p-ERK IC50 (A549)
Property measured: IC50 (µM)
Give bare numbers, in µM.

C=CC(=O)N1CCN(c2nc(=O)n(-c3ccccc3C(C)CC)c3cc(-c4cc(O)cc5ccccc45)c(Cl)cc23)CC1 (racemic)	13

Can you give me IC50 for all of these, one by one?
1. C=CC(=O)N1CCN(c2snc3c(F)c(-c4cc(O)ccc4Cl)c(Cl)cc23)CC1
2. C=CC(=O)N1CCN(c2nc(=O)n(-c3ccccc3C(C)C)c3cc(-c4c(O)cccc4F)c(Cl)cc23)CC1

a:
11.1
62.3

----------
Target: GDP-bound protein (aa 1-169), containing both G12C and C118A amino acid substitutions (Homo sapiens, UniProt P01116, C118A/G12C)
Test: Coupled Nucleotide Exchange Assay (SOS-mediated nucleotide exchange, AlphaScreen)
Format: biochemical
Conditions: 2 hours compound pre-incubation
Experimental: Coupled Nucleotide Exchange Assay: Purified GDP-bound […] protein (aa 1-169), containing both G12C and C118A amino acid substitutions and an N-terminal His-tag, was pre-incubated with a compound dose-response titration for 2 hours in assay buffer (25 mM HEPES pH 7.4, 10 mM MgCl2, and 0.01% Triton X-100). […] The assay plates were then read on a PerkinElmer EnVision Multilabel Reader, using AlphaScreen® technology, and data were analyzed using a 4-parameter logistic model to calculate IC50 values.
Parameter class (string): assigned from measured Coupled exchange IC50. Ranges: range A = under 300 nM, range B = from 300 nM up to 2000 nM, range C = 2000 nM and over

Example results:
C=C(CCO)C(=O)N1CCN(c2snc3c(F)c(-c4cc(O)cc5ccccc45)c(Cl)cc23)CC1	range C
C=CC(=O)N1CCN(c2snc3c(F)c(-c4cc(O)cc5cnn(C)c45)c(Cl)cc23)CC1	range B
C=CC(=O)N1CCN(c2snc3c(F)c(-c4cc(O)cc5ccccc45)c(Cl)cc23)C(CO)C1 (racemic) [Example 1-18]	range B
C=CC(=O)N1CCN(c2snc3c(F)c(-c4cc(O)ccc4C)c(Cl)cc23)CC1	range B
C=CC(=O)N1CCN(c2nnc(-c3ccccc3C)c3cc(-c4c(O)cccc4F)c(Cl)cc23)CC1	range C
C=CC(=O)N1CCN(c2nnc(-c3cc(Cl)ccc3C)c3cc(-c4c(O)cccc4F)c(Cl)cc23)CC1	range B

Consider the additional molecule presented here.
q: For this molecule, which bin applies? C=CC(=O)N1CCN(c2snc3nc(-c4cc(O)cc5ccccc45)c(Cl)cc23)CC1
a: range B
